Hello, the source for this data is ChEMBL document CHEMBL1961873, in case you need it.

Biological target: Ribosomal protein S6 kinase alpha-4 (Homo sapiens);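 also: values are mean inhibition of MSK2, from GSK PKIS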
Details: at 0.1 µM
outcome measure: inhibition

What value of inhibition has been reported for the following compound? "O=C(O[C@H]1CN[C@H](C#Cc2cc3ncnc(Nc4ccc(Cc5ccccc5)cc4)c3s2)C1)N1CCOCC1"
3.21%

May I ask what inhibition has been recorded for "CCn1c(-c2nonc2N)nc2c(C#CC(C)(C)O)ncc(OC3CCNCC3)c21" ?
3.66%

# inhibition lookup, item "Fc1ccc(-c2nn3ncccc3c2-c2ccnc(Nc3ccc4c(c3)OCCO4)n2)cc1"
0.67%

Which measured inhibition value corresponds to "CNC(=O)c1cccc(C#Cc2cncnc2Nc2ccc(OCc3cccc(F)c3)c(Cl)c2)c1" ?
0.45%

Look up inhibition: "CCc1nn2ncccc2c1-c1ccnc(NC2CC2)n1"
1.26%

GET /values?readout=inhibition&item= "N#Cc1c(NC(=O)CN2CCOCC2)sc2c1CCCC2"
2.5%

# get_value(readout='inhibition', item= "CCN(CC)S(=O)(=O)c1ccc(OC)c(Nc2ncc(-c3ccccc3)o2)c1" )
0.54%

Value lookup for inhibition; key = "CCNC(=O)O[C@H]1CN[C@H](C#Cc2cc3ncnc(Nc4ccc(OCc5cccc(F)c5)c(Cl)c4)c3s2)C1"
1.61%

Param item = "COC(=O)Nc1nc2ccc(Oc3ccc(NC(=O)Nc4cccc(Cl)c4)cc3)cc2[nH]1" ; retrieve measured inhibition.
0.82%

----------
Could you please report measured inhibition for the items listed next?
Target: Serine/threonine-protein kinase MARK2 (Homo sapiens);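 also: mean percent inhibition of PAR-1Balpha kinase activity, reported from the GSK PKIS screen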
Details: at 0.1 µM
Answer format: numeric, % implied, no suffix.

// lookup inhibition for "CC(=O)NCc1cccc(C#Cc2cncnc2Nc2ccc(OCc3cccc(F)c3)c(Cl)c2)c1"
0.37

State the recorded inhibition for this entry: "CCN1CCC(CC(=O)Nc2n[nH]c3nnc(-c4cccc(F)c4F)cc23)CC1"
-2.03

Could you tell me which inhibition is on file for "FC(F)(F)c1cccc(-c2nn3ncccc3c2-c2ccnc(Nc3ccc4c(c3)OCCO4)n2)c1" ?
-1.11

Which inhibition reading was recorded for the compound "CC(C)(CO)CNC(=O)c1ccc2c(c1)/C(=N/Nc1ccc(S(N)(=O)=O)cc1)C(=O)N2" ?
3.29

// lookup inhibition for "COc1cccc(-n2ncc3c(N/N=C/c4ccc(F)cc4)ncnc32)c1"
1.91

----------
Target: Tyrosine-protein kinase FRK (Homo sapiens) (UniProt P42685);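 also: values are mean inhibition of PTK5 (FRK) kinase activity from the GSK PKIS screening set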
Sequence (P42685 whole entry): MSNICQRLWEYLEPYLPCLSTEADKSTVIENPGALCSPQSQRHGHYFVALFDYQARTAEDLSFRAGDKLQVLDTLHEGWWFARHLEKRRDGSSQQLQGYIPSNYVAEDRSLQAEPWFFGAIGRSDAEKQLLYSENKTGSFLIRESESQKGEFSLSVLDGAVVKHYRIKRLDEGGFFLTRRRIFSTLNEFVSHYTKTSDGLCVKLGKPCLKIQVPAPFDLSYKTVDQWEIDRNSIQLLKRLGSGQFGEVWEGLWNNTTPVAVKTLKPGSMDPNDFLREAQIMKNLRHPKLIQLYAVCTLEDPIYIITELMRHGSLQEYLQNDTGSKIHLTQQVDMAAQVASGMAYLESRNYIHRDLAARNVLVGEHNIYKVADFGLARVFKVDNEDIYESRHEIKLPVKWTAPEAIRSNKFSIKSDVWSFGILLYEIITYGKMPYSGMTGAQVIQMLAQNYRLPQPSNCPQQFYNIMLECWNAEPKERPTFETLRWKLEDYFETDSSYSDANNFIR
Conditions: at 0.1 µM
Give inhibition for every item shown.
Return type: number; implicit unit %.

Would you mind telling me what inhibition value was observed for "[O-][S+]1CCN(Cc2ccc(-c3ccc4ncnc(Nc5ccc(OCc6cccc(F)c6)c(Cl)c5)c4c3)o2)CC1" ?
4.01

Requested read-out: inhibition. Entry: "CC(C)COC(=O)c1ccc2c(c1)/C(=C/Nc1ccc(S(N)(=O)=O)cc1)C(=O)N2"
-0.58

Report inhibition for "CCn1c(-c2nonc2N)nc2cnc(Oc3cccc(NC(=O)c4ccc(N(C)C)cc4)c3)cc21" please.
1.12

Item "COC(=O)c1sc(-n2cnc3cc(OC)c(OC)cc32)cc1OCc1ccccc1C(F)(F)F" has what recorded inhibition?
2.68

// query inhibition value for entry "CC(C)(CO)CNC(=O)c1ccc2c(c1)/C(=N/Nc1ccc(S(N)(=O)=O)cc1)C(=O)N2"
-0.08

Quick one: inhibition of "CCn1c(-c2nonc2N)nc2c(C#CC(C)(C)O)nc(OC[C@H](N)c3ccccc3)cc21" ?
-0.38

Given the entry "CCn1c(-c2nonc2N)nc2ccccc21" , report its measured inhibition.
0.05

Need inhibition, item "O=C(Nc1n[nH]c2cc(-c3ccc(F)cc3)ccc12)C1CC1"
1.74

// returns reported inhibition for input "c1cc(-c2cnn3nc(N4CCOCC4)ccc23)nc(NC2CC2)n1"
1.71

Requested field: inhibition. Item: "NS(=O)(=O)c1ccc(N/N=C2\C(=O)Nc3ccc4ncccc4c32)cc1"
0.32
